All values here come from patent US20160333110A1.

# System: T1, recombinant protein of the hTROP-2 extracellular region (human, UniProt P09758 27-263)
# T1 construct: produced with baculovirus, purified on Ni Sepharose; also called hTROP-2 EC; hTROP-2-EC-His; not shown: C-terminal myc-His tag from pcDNA4/myc-His A
# T1 sequence: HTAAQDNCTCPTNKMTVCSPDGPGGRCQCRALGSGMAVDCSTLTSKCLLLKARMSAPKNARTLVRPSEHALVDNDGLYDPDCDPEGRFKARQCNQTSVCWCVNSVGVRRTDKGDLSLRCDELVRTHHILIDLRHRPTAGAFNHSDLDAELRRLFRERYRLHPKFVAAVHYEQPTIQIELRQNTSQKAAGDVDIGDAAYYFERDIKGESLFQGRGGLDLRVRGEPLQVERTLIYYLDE
# Method notes: antigen-coated ELISA, plate coated with 0.5 µg/ml hTROP-2 extracellular region
Measured endpoint: EC50

- Binder: "humanized T6-16 antibody HuT6-16-1 (antibody, V domains shown, HuT6-16 VH1 with HuT6-16 VL; also called HuT6-16-1 antibody) VH: QVQLVQSGAEVKKPGASVKVSCKASGYTFTDYNMHWVRQAPGQGLEWIGYIYPYNGGTGYNQRFKSRATMTVDKSTSTAYMELRSLRSDDTAVYYCAREDYGSSPSYAMDYWGQGTMVTVSS VL: DIVMTQSPLSLPVTPGEPASISCRSSQSLVHGNGNTYLHWYLQKPGQSPQLLIYKVSNRFSGVPDRFSGSGSGTDFTLKISRVEAEDVGVYYCSQTTHVPTFGGGTKVEIK"
  Measured: "0.027 µg/mL"
- Binder: "humanized K5-70 antibody (HuK5-70) (antibody, V domains shown, human IgG1 / human kappa constant regions from the vectors pFUSE-CHIg-hG1 and pFUSE2-CLIg-hk; also called HuK5-70 antibody) VH: QVQLVQSGAEVKKPGASVKVSCKASGYTFTIYWINWVRQAPGQRLEWIGNIYPSDSYTNYNQKFKDKATLTVDTSASTAYMELSSLRSEDTAVYYCTRTSMADYWGQGTLVTVSS VL: EIVLTQSPATLSLSPGERATLSCRASQSIGTSIHWYQQKPGQAPRLLIKYASESISGIPARFSGSGSGTDFTLTISSLEPEDFAVYYCQQSNSWPFTFGQGTKVEIK"
  Measured: "0.022 µg/mL"
